biological target: HsCBS (Homo sapiens, UniProt P35520, DEL516-525); construct: purchased GenScript; assay: CBS H2S production assay (AzMC fluorometric), HsCBS; assay type: biochemical; conditions: HsCBS in the absence of SAM; AzMC assay, 5 mM Cys + 2 mM Hcy
Sequence (P35520 with tags, fused parts or gaps DEL516-525): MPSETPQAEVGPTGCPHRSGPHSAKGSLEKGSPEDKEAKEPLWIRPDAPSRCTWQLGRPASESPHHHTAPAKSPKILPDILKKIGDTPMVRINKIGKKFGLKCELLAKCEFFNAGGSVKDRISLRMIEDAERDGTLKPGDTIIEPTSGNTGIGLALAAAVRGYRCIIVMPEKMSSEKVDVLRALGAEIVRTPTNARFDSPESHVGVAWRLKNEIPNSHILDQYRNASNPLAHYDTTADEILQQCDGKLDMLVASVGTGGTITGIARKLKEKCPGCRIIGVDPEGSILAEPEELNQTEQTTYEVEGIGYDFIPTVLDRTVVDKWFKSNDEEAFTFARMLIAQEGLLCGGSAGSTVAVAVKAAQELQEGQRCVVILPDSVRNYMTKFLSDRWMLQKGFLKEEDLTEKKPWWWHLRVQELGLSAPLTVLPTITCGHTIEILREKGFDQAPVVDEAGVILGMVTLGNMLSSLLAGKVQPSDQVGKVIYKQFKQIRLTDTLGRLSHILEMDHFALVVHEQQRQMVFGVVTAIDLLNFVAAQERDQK
Assay readout: IC50 (µM)
Answers are plain numbers, in µM.

Memo: NOCC(=O)O , reported IC50: 12.8

###

biological target: HsCBS (Homo sapiens, UniProt P35520, DEL516-525); construct: purchased GenScript; assay: CBS H2S production assay (AzMC fluorometric), HsCBS; assay type: biochemical; settings: HsCBS in the presence of 500 µM SAM; AzMC assay, 5 mM Cys + 2 mM Hcy
Assay readout: pIC50
One number for each entry, as −log10 of the molar value.

Memo: NOCC(=O)O , reported pIC50: 4.96
